# SYSTEM_NAME: interaction between biotinylated human S100A9 and human RAGE-Fc (Homo sapiens, UniProt P06702)
# MEASUREMENT_NOTES: AlphaScreen inhibition assay, Biot-hS100A9:hRAGE-Fc (S100A9-RAGE inhibition assay)
# PROTOCOL_CONDITIONS: biot-hS100A9 and rhRAGE-Fc, Ca2+ and Zn2+ in buffer
PROPERTY_MEASURED: pIC50
Note on units: pIC50 is unitless, being -log10 of a concentration expressed in mol/L.

May I ask what pIC50 has been recorded for O=C(CCC1CCCCC1)NC1(C(F)(F)F)C(=O)Nc2nc3cc(Cl)c(Cl)cc3n21 (stereo not shown) ? 6.15

May I ask what pIC50 has been recorded for CS(=O)(=O)NC(=O)c1cccc2c1nc1n2C(NC(=O)CCC2CCCC2)(C(F)(F)F)C(=O)N1 (stereo not shown) ? 6.40

May I ask what pIC50 has been recorded for Cc1cccc2c1nc1n2C(NC(=O)CCC2CCCC2)(C(F)(F)F)C(=O)N1 (stereo not shown) ? 5.25

May I ask what pIC50 has been recorded for O=C(NC1(C(F)(F)F)C(=O)Nc2nc3cc(Cl)c(Cl)cc3n21)C1CNC1 (stereo not shown) ? 5.41

* * *

I'd appreciate it if you could supply pIC50 values for the items below.
# SYSTEM_NAME: interaction between biotinylated human S100A9 and human RAGE-Fc (Homo sapiens)
# Sequence (P06702 1-114): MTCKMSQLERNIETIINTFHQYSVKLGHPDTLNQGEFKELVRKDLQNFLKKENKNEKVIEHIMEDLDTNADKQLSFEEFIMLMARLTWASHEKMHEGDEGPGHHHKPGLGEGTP
# MEASUREMENT_NOTES: AlphaScreen inhibition assay, Biot-hS100A9:hRAGE-Fc (S100A9-RAGE inhibition assay)
# PROTOCOL_CONDITIONS: biot-hS100A9 and rhRAGE-Fc, Ca2+ and Zn2+ in buffer
Note on units: pIC50 is unitless, being -log10 of a concentration expressed in mol/L.

May I ask what pIC50 has been recorded for Cc1cc2nc3n(c2cc1C)C(NC(=O)[C@@H](C)c1ccccc1)(C(F)(F)F)C(=O)N3 (single isomer, unassigned) [Example 144] ? 5.19

May I ask what pIC50 has been recorded for COCCNc1cccc(C(=O)NC2(C(F)(F)F)C(=O)Nc3nc4cc(Cl)c(Cl)cc4n32)n1 (stereo not shown) [Example 71] ? 6.70

May I ask what pIC50 has been recorded for O=C(CCC1CCCC1)NC1(C(F)(F)F)C(=O)Nc2nc3c(F)cc(F)cc3n21 (stereo not shown) [Example 86] ? 5.19

May I ask what pIC50 has been recorded for COc1ccc(-c2cccc3c2nc2n3C(NC(=O)CCC3CCCC3)(C(F)(F)F)C(=O)N2)cn1 (stereo not shown) [Example 188] ? 6.03

* * *

# SYSTEM_NAME: interaction between biotinylated human S100A9 and human RAGE-Fc (Homo sapiens)
# MEASUREMENT_NOTES: AlphaScreen inhibition assay, Biot-hS100A9:hRAGE-Fc (S100A9-RAGE inhibition assay)
# PROTOCOL_CONDITIONS: biot-hS100A9 and rhRAGE-Fc, Ca2+ and Zn2+ in buffer
# Method: FIG. 1 is a schematic representation of an assay of the inhibition of the interaction between biotinylated human S100A9 and human RAGE-Fc using a small molecule S100A9 binder. Inhibition Assay, Biot-hS100A9:hRAGE-Fc […] In the AlphaScreen Inhibition Assay described here, protein A (Staphylococcus aureus) conjugated Acceptor beads are used together with streptavidin coated Donor beads (Perkin Elmer 6760617M). […] After an additional incubation the signal is measured. […]
Parameter class (string): assigned from measured IC50. Ranges: b0 (below 700 nM), b1 (700 nM to below 3000 nM), b2 (3000 nM or more)

The entry to classify is CC(=O)c1cccc2c1nc1n2C(NC(=O)CCC2CCCC2)(C(F)(F)F)C(=O)N1 (single isomer, unassigned) [Example 224a] ; which class holds it? b1

The entry to classify is O=C(NC1(C(F)(F)F)C(=O)Nc2nc3cc(Cl)c(Cl)cc3n21)c1cccc(NCCO)n1 (stereo not drawn) ; which class holds it? b0

The entry to classify is Cc1cc2nc3n(c2cc1C)C(NC(=O)c1ccc(OCC(F)(F)F)nc1)(C(F)(F)F)C(=O)N3 (stereo not drawn) ; which class holds it? b2

The entry to classify is COc1ccc(-c2cccc3c2nc2n3C(NC(=O)CCC3CCCC3)(C(F)(F)F)C(=O)N2)cc1 (stereo not drawn) [Example 186] ; which class holds it? b0

The entry to classify is O=C(CCC1CCCC1)NC1(C(F)(F)F)C(=O)Nc2nc3c(NS(=O)(=O)C4CC4)cccc3n21 (stereo not drawn) ; which class holds it? b1

The entry to classify is O=C(CCC1CCCC1)NC1(C(F)(F)F)C(=O)Nc2nc3c(C(=O)O)cccc3n21 (single isomer, unassigned) [Example 231b] ; which class holds it? b1

The entry to classify is O=C(NC1(C(F)(F)F)C(=O)Nc2nc3cc(Cl)c(Cl)cc3n21)c1cccc(OCC(F)(F)F)n1 (stereo not drawn) ; which class holds it? b1

The entry to classify is O=C(CN1CCOCC1)NC1(C(F)(F)F)C(=O)Nc2nc3cc(Cl)c(Cl)cc3n21 (stereo not drawn) ; which class holds it? b2

The entry to classify is CN(C)CCNc1cccc(C(=O)NC2(C(F)(F)F)C(=O)Nc3nc4cc(Cl)c(Cl)cc4n32)n1 (stereo not drawn) ; which class holds it? b0

The entry to classify is O=C(NC1(C(F)(F)F)C(=O)Nc2nc3cc(Cl)c(Cl)cc3n21)C1CC2(CNC2)C1 (stereo not drawn) ; which class holds it? b2

The entry to classify is Cc1cc2nc3n(c2cc1C)C(NC(=O)CCCC1CCCC1)(C(F)(F)F)C(=O)N3 (stereo not drawn) ; which class holds it? b0

The entry to classify is O=C(CCC1CCCC1)NC1(C(F)(F)F)C(=O)Nc2nc3ccccc3n21 (stereo not drawn) ; which class holds it? b2

The entry to classify is O=C(CCC1CCCC1)NC1(C(F)(F)F)C(=O)Nc2nc3c(-c4nnn[nH]4)cccc3n21 (stereo not drawn) ; which class holds it? b1

* * *

# SYSTEM_NAME: interaction between biotinylated human S100A9 and human RAGE-Fc (Homo sapiens)
# Sequence (P06702 1-114): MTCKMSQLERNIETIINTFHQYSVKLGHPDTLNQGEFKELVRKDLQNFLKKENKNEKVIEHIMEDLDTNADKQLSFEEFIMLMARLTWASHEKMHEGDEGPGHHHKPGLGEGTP
# MEASUREMENT_NOTES: AlphaScreen inhibition assay, Biot-hS100A9:hRAGE-Fc (S100A9-RAGE inhibition assay)
# PROTOCOL_CONDITIONS: biot-hS100A9 and rhRAGE-Fc, Ca2+ and Zn2+ in buffer
Label met when IC50 < 1000 nM; otherwise not met.

Take the compound O=C(CCC1CCCC1)NC1(C(F)(F)F)C(=O)Nc2nc3c(-c4ccc(Cl)cc4)cccc3n21 (stereo not shown) and say whether its IC50 is less than 1000 nM. met

Take the compound Cc1cc2c(nc3n2C(NC(=O)c2ccccc2)(C(F)(F)F)C(=O)N3)c(Br)c1C (stereo not shown) and say whether its IC50 is less than 1000 nM. not met

Take the compound O=C(CCC1CCCC1)NC1(C(F)(F)F)C(=O)Nc2nc3c(Cl)cc(Cl)cc3n21 (stereo not shown) and say whether its IC50 is less than 1000 nM. not met

Take the compound O=C(NC1(C(F)(F)F)C(=O)Nc2nc3cc(Cl)c(Cl)cc3n21)C1CCCCC1 (stereo not shown) and say whether its IC50 is less than 1000 nM. not met

Take the compound O=C(CCC1CCCC1)NC1(C(F)(F)F)C(=O)Nc2nc3c(-c4ccccc4O)cccc3n21 (stereo not shown) and say whether its IC50 is less than 1000 nM. not met

Take the compound Cc1cc2nc3n(c2cc1C)C(NC(=O)CCc1c(Cl)cccc1Cl)(C(F)(F)F)C(=O)N3 (stereo not shown) and say whether its IC50 is less than 1000 nM. not met

Take the compound CN(C)c1cccc(C(=O)NC2(C(F)(F)F)C(=O)Nc3nc4cc(Cl)c(Cl)cc4n32)n1 (stereo not shown) and say whether its IC50 is less than 1000 nM. not met

Take the compound O=C(NC1(C(F)(F)F)C(=O)Nc2nc3cc(Cl)c(Cl)cc3n21)c1cccc(Cl)n1 (stereo not shown) and say whether its IC50 is less than 1000 nM. not met

Take the compound O=C(CCN1CCOCC1)NC1(C(F)(F)F)C(=O)Nc2nc3cc(Cl)c(Cl)cc3n21 (stereo not shown) and say whether its IC50 is less than 1000 nM. not met

Take the compound O=C(CCC1CCCC1)NC1(C(F)(F)F)C(=O)Nc2nc3c(C(=O)O)cc(Cl)cc3n21 (stereo not shown) and say whether its IC50 is less than 1000 nM. met

Take the compound COCCNc1nc(C(=O)NC2(C(F)(F)F)C(=O)Nc3nc4c(C#N)c(Cl)ccc4n32)cs1 (stereo not shown) and say whether its IC50 is less than 1000 nM. not met

Take the compound COc1ccc(-c2cccc3c2nc2n3C(NC(=O)CCC3CCCC3)(C(F)(F)F)C(=O)N2)cc1 (single isomer, unassigned) [Example 230a] and say whether its IC50 is less than 1000 nM. met

Take the compound O=C(CCC1CCCC1)NC1(C(F)(F)F)C(=O)Nc2nc3c(F)c(F)ccc3n21 (stereo not shown) and say whether its IC50 is less than 1000 nM. not met

Take the compound Cc1cc2nc3n(c2cc1C)C(NC(=O)CC1CCCCC1)(C(F)(F)F)C(=O)N3 (stereo not shown) and say whether its IC50 is less than 1000 nM. not met

Take the compound O=C(CCC1CCCC1)NC1(C(F)(F)F)C(=O)Nc2nc3c(-c4ccccc4)cccc3n21 (stereo not shown) and say whether its IC50 is less than 1000 nM. not met

Take the compound O=C(CCC1CCCC1)NC1(C(F)(F)F)C(=O)Nc2nc3c(Cl)c(Cl)ccc3n21 (stereo not shown) and say whether its IC50 is less than 1000 nM. met
